These measurements were taken from PubChem BioAssay (EPA / NIEHS).

- assayComment: ATG_TGFb_CIS: Attagene CIS-FACTORIAL HepG2 Assay for human Transforming Growth Factor (TGF) (AID 2282967)
- assayContext: HepG2 Attagene CIS TGFb reporter, mRNA transcription; actives raise or lower the signal
Active and inactive are the calls of the source. Rule for the calls: active = hit-call score of the fitted dose curve at least 0.9, where 1 is the maximum; inactive = score below 0.9.
Hi! Could you answer with just one of these? 1.0 = active, 0.0 = inactive

Answered examples (4):
CC(C)Nc1nc(N)nc(Cl)n1 | 0.0
OCc1cccc(Oc2ccccc2)c1 | 0.0
CCNCCO | 0.0
O=C(c1ccccc1)C(O)c1ccccc1 (stereo not drawn) | 0.0

Hey, what did the test say about Cc1ncc[nH]1 ?
0.0

Hey, what did the test say about CCCCCc1ccco1 ?
0.0

Hey, what did the test say about O=C(O)c1ccc(O)cc1 ?
0.0

Hey, what did the test say about CC1=C(Br)C(=O)C(Br)=C/C1=C(/c1ccccc1S(=O)(=O)O)c1cc(Br)c(O)c(Br)c1C ?
0.0

Hey, what did the test say about C[C@H]1C[C@@H](O)CC(C)(C)C1 ?
0.0

Hey, what did the test say about CCN(CCC#N)c1ccc(N=Nc2ccc([N+](=O)[O-])cc2)cc1 ?
0.0

Hey, what did the test say about CCCC(O)C(O)CO (stereo not drawn) ?
0.0

Hey, what did the test say about CN(C)C(=S)SC(=S)N(C)C ?
0.0

Hey, what did the test say about CCCC1O[C@@H]2C[C@H]3[C@@H]4CCC5=CC(=O)C=C[C@]5(C)[C@H]4[C@@H](O)C[C@]3(C)[C@]2(C(=O)CO)O1 (stereo partly drawn) ?
1.0

====

- assayComment: TOX21_PR_LUC_Followup_Antagonist_viability: Viability Assessment in the Tox21 HEK293 Progesterone Receptor (PR) Antagonism Luciferase Follow-Up Assay (AID 2283940);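 note: cells exposed to compound for 16 h at 37 °C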
- Description: TOX21_PR_LUC_Followup is a secondary assay for specificity for the TOX21_PR_BLA_Agonist assay. […] Furthermore, this assay endpoint can be referred to as a secondary readout, because this assay has produced multiple assay endpoints where this one serves a viability function. […]
Results filed as inconclusive are left out. Active and inactive are the calls of the source. How the source made its calls: active means hit-call score of the fitted dose curve at least 0.9, where 1 is the maximum; inconclusive means response in the unintended direction; inactive means score below 0.9.
attributeMeasured: outcome

Some solved cases for reference:
N#Cc1ccc(CC(=O)c2cccc(C(F)(F)F)c2)cc1 | inactive
C=C1CC[C@H](O)C/C1=C/C=C1\CCC[C@]2(C)[C@@H]([C@H](C)/C=C/[C@H](C)C(C)C)CC[C@@H]12 | inactive
O=c1c(O)c(-c2ccc(O)cc2)oc2cc(O)cc(O)c12 | inactive
O=C(Nc1ccc2c(c1)Cc1ccccc1-2)C(F)(F)F | inactive
CCCOC(=O)c1c(Cl)c(Cl)c(Cl)c(Cl)c1C(=O)OCCC | inactive

Switching to the query record.
The reported outcome of the compound CCOC(=O)C(C#N)=C(c1ccccc1)c1ccccc1 was inactive

====

- targetDesc: human Phosphoinositide 3-kinase alpha (PI3Ka), PIK3CA (gene 5290) (UniProt P42336)
- Sequence (P42336 whole entry, looked up): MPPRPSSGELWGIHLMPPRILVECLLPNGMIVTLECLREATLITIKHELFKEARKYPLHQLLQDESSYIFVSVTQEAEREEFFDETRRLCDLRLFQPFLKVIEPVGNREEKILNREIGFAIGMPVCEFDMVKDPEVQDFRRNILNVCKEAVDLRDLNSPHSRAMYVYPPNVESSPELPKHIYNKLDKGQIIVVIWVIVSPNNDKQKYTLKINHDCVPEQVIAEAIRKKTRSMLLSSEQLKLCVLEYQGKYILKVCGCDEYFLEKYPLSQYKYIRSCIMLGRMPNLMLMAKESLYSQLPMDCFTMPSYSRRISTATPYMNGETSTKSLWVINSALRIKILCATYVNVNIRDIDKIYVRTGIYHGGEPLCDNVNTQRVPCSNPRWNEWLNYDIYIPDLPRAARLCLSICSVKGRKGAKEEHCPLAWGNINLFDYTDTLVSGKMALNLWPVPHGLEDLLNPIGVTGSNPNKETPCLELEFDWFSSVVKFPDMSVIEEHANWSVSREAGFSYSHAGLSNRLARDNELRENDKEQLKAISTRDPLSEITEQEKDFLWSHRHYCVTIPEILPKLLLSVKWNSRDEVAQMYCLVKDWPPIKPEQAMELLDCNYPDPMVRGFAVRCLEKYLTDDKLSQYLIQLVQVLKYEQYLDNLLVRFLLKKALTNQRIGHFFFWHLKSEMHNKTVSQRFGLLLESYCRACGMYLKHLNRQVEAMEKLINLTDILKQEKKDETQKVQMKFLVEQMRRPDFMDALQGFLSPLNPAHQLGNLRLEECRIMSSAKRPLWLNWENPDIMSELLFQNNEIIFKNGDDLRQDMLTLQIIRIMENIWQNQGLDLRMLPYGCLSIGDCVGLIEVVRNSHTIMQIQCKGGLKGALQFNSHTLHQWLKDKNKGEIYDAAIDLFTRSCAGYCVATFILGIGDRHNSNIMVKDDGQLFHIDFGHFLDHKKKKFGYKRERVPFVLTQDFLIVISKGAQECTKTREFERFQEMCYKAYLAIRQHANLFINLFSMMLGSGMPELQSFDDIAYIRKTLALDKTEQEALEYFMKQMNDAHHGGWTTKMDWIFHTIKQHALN
- assayComment: NVS_ENZ_hPI3Ka: NovaScreen (NVS) Enzymatic Assay for human Phosphoinositide 3-kinase alpha (PI3Ka) (AID 2283196)
Inconclusive results are not listed. Calls of active or inactive are those of the source. How the source made its calls: active means hit-call score of the fitted dose curve at least 0.9, where 1 is the maximum; inconclusive means response in the unintended direction; inactive means score below 0.9.
Hi! Could you answer with just one of these? T for active, F for inactive

CC(=O)CC(=O)Nc1ccccc1 | F
NC(=S)NNC(N)=S | F
CCCCCCOCCOCCO | F

Hey, what did the test say about CC(=O)c1c(C)c([N+](=O)[O-])c(C(C)(C)C)c([N+](=O)[O-])c1C ?
F

Hey, what did the test say about CCOc1ccc(NC(=O)CC(C)=O)cc1 ?
F

Hey, what did the test say about O=CN1CCOCC1 ?
F

Hey, what did the test say about COCCOC(=O)c1ccccc1C(=O)OCCOC ?
F

Hey, what did the test say about CC(C)(N=C=O)c1cccc(C(C)(C)N=C=O)c1 ?
T

Hey, what did the test say about OCCCCC(O)CO (centres undefined) ?
T
